The reported measurements were obtained from the supplement of paper PMC3334620.

Biological target: Yap3 (UniProt P38749)
Sequence: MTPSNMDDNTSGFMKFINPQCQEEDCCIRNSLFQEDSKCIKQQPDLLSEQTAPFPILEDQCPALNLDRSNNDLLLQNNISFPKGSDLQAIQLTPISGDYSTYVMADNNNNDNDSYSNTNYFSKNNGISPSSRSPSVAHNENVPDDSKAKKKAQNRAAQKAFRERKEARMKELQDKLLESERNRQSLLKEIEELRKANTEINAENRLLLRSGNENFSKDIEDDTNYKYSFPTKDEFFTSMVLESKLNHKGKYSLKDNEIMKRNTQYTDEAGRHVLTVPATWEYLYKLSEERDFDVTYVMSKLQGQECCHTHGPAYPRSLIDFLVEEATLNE
Assay: PBM E-score (8-mer binding enrichment) (E-score (-0.5 to 0.5)); higher = stronger / more preferred TF binding
Settings: protein concentration: 100 nM; construct: GST-full length
The full ranking holds about 33,000 sequences; the median of “E-score (-0.5 to 0.5)” is about -0.0034, and the highest 2% start at about 0.25. This excerpt belongs to a sample that is enriched for the highest values.
Mark satisfied for reported PBM E-score of 0.2 or greater; mark not satisfied for anything smaller.

State whether the measured PBM E-score reaches 0.2, counting equality as reaching it, for CGGAAATA
satisfied

Could you verify whether the entry GAGTCATC shows PBM E-score of no less than 0.2?
not satisfied

Does PBM E-score meet or surpass 0.2 for GAATTAGA ?
not satisfied

hey, is PBM E-score for this one >= 0.2? GATATTAA
satisfied

Record ATGGATAG ; criterion: PBM E-score no lower than 0.2. Met?
not satisfied

Determine whether this sequence has PBM E-score no lower than 0.2: GGATCCAC
not satisfied

Answer whether PBM E-score of CATGTAAG is greater than or equal to 0.2.
not satisfied

I'd appreciate it if you could say whether ACAATATA has PBM E-score at least equal to 0.2.
satisfied

Form field: PBM E-score at least 0.2? Entry: AATCCGGG
not satisfied

// inclusive: PBM E-score at least 0.2? input: CAATATGG
not satisfied

Given the entry AACATAAG , answer whether its PBM E-score meets or surpasses 0.2.
satisfied

Has GACAAATA a recorded PBM E-score greater than or equal to 0.2?
satisfied

Quick check, PBM E-score >= 0.2? CCATTTTA
satisfied

Would you say CAGTAATC shows PBM E-score at minimum 0.2?
not satisfied

Record ATATTTTC ; criterion: PBM E-score no lower than 0.2. Met?
satisfied

Threshold query (PBM E-score >= 0.2) on GGCGGGGA
satisfied

hey, is PBM E-score for this one >= 0.2? GCAATATA
satisfied

Please check the record AGTAAACT and state if its PBM E-score is at or above 0.2.
not satisfied

PBM E-score >= 0.2 for TAATTAGA ?
satisfied

Has CCAATGCC a recorded PBM E-score greater than or equal to 0.2?
not satisfied

Dear colleague, could you confirm whether GAGTAATC has PBM E-score at or above 0.2?
not satisfied

Determine whether measured PBM E-score meets or exceeds 0.2 for ACTGTAAA
satisfied

Dear colleague, could you confirm whether TAATTATA has PBM E-score at or above 0.2?
satisfied

State whether the measured PBM E-score reaches 0.2, counting equality as reaching it, for CACAAATA
not satisfied

Textbook exercise: given the entry CGTAAATA , state whether its PBM E-score is greater than or equal to 0.2.
satisfied

Kindly determine if PBM E-score recorded for AATGTAAT is above or exactly 0.2.
satisfied

Has CAATTATC a recorded PBM E-score greater than or equal to 0.2?
satisfied

Does PBM E-score meet or surpass 0.2 for CTGCACTC ?
not satisfied

State whether the measured PBM E-score reaches 0.2, counting equality as reaching it, for CGTAAATC
not satisfied

Is PBM E-score at least 0.2? Consider CACAACAC
not satisfied

Quick check, PBM E-score >= 0.2? ATAATCAA
not satisfied

Reported PBM E-score reaches at least 0.2 for ATATTTTG ?
not satisfied

Is PBM E-score for AATATTAA at or above 0.2?
satisfied

Given the entry ACAAATAA , answer whether its PBM E-score meets or surpasses 0.2.
satisfied

Check if PBM E-score >= 0.2 (inclusive). Item: ACAAATAT
satisfied

Confirm if PBM E-score reported for the sequence AGACAAAA is 0.2 or above.
not satisfied

Determine whether this sequence has PBM E-score no lower than 0.2: TATCTCAA
satisfied

Item AGATAGCA with PBM E-score of 0.2 or above?
not satisfied

Please tell me: is the sequence CAATTAGA at or over 0.2 in terms of PBM E-score?
not satisfied

Test whether the sequence AATGTAAA records PBM E-score of 0.2 or higher.
satisfied

Is reported PBM E-score greater than or equal to 0.2 here: GTTACTCA
not satisfied

Kindly determine if PBM E-score recorded for GTATTTTA is above or exactly 0.2.
not satisfied

Evaluate AGTAAATG : PBM E-score at minimum 0.2?
not satisfied

Is reported PBM E-score greater than or equal to 0.2 here: TCTATTAA
not satisfied

Is PBM E-score for GCAAATAC at or above 0.2?
not satisfied

# check: PBM E-score of CAATTATA is greater than or equal to 0.2
not satisfied

Please indicate if the recorded PBM E-score for CACAACTA meets or exceeds 0.2.
satisfied

Please check the record CTAATCAC and state if its PBM E-score is at or above 0.2.
satisfied

Is the recorded value of PBM E-score equal to or greater than 0.2 for this sequence? AAATTATA
satisfied

Evaluate ACACTTGC : PBM E-score at minimum 0.2?
not satisfied

Is it the case that ACATTTTA has PBM E-score reaching or exceeding 0.2?
satisfied

Quick check: does CCGCGGCA have PBM E-score greater than or equal to 0.2?
not satisfied

Please tell me: is the sequence AACATACG at or over 0.2 in terms of PBM E-score?
not satisfied

hey, is PBM E-score for this one >= 0.2? GCTATTAA
not satisfied

Is PBM E-score at least 0.2? Consider ACTGACCG
not satisfied

For this sequence, is measured PBM E-score 0.2 or higher? CGGAAATC
not satisfied

Is the recorded value of PBM E-score equal to or greater than 0.2 for this sequence? ACAAAAAT
satisfied

hey, is PBM E-score for this one >= 0.2? CTATTTGA
satisfied

Evaluate ATTTTCGG : PBM E-score at minimum 0.2?
not satisfied

Check if PBM E-score >= 0.2 (inclusive). Item: ACCGCAAA
not satisfied

Hello, I need to know if CTTACTAC has measured PBM E-score not below 0.2. Thanks!
satisfied

Could you tell me if the measured PBM E-score of AATCTCAA reaches 0.2 or more?
not satisfied

Given the entry CCAAATAC , answer whether its PBM E-score meets or surpasses 0.2.
not satisfied

Does the reported PBM E-score for ACACCAGG fall at or above the 0.2 mark?
not satisfied

For this sequence, is measured PBM E-score 0.2 or higher? GAGTAATA
satisfied

Would you say CCTCAAAC shows PBM E-score at minimum 0.2?
not satisfied

Is the recorded value of PBM E-score equal to or greater than 0.2 for this sequence? AGTAAATA
satisfied

Does the reported PBM E-score for TCGATCCA fall at or above the 0.2 mark?
not satisfied

Confirm if PBM E-score reported for the sequence AAGAATCC is 0.2 or above.
not satisfied

Does the reported PBM E-score for ACCACTCG fall at or above the 0.2 mark?
not satisfied

Could you verify whether the entry CGACCGCG shows PBM E-score of no less than 0.2?
not satisfied

I'd appreciate it if you could say whether GGGAAATA has PBM E-score at least equal to 0.2.
not satisfied

# bool: PBM E-score of CCGAGAGG >= 0.2
not satisfied

For this sequence, is measured PBM E-score 0.2 or higher? AATATTAG
satisfied

Given CTGCACTA , state whether its PBM E-score is at least 0.2.
satisfied

Is it the case that AATGTAAG has PBM E-score reaching or exceeding 0.2?
satisfied

Decide: PBM E-score of CAGTAATG >= 0.2?
not satisfied

Reported PBM E-score reaches at least 0.2 for GTTACTAA ?
satisfied

Please indicate if the recorded PBM E-score for GAATTATA meets or exceeds 0.2.
satisfied

Quick check, PBM E-score >= 0.2? AGTCCTAC
not satisfied

Confirm if PBM E-score reported for the sequence ACAAAAAC is 0.2 or above.
not satisfied

Given CCAATATA , state whether its PBM E-score is at least 0.2.
not satisfied
